Pigweed plant response rating values, listed per item
system: pigweed; test: Test A pre-/postemergence herbicide test; type: in vivo, Amaranthus retroflexus; details: Preemergence, 500 g ai/ha; visual rating on 0 to 100 scale (0 no effect, 100 complete control)
Lab note: record the figure alone, no unit after it.

Use the examples below as a reference point.
Compound: O=C1NCC(c2cccc(C(F)(F)F)c2)C1C(=O)Nc1ccc(F)c(F)c1F (stereo not shown)
Pigweed plant response rating: 30

Compound: O=C1NCC(c2cccc(Oc3ccccc3)c2)C1C(=O)Nc1ccccc1Cl (stereo not shown)
Pigweed plant response rating: 0

Compound: O=C1NCC(c2cccc(C(F)(F)F)c2)C1C(=O)Nc1cccc(C(F)(F)F)c1 (stereo not shown)
Pigweed plant response rating: 0

Next:
Pigweed plant response rating for O=C1NCC(c2ccc(Br)c(Br)c2)C1C(=O)Nc1cccc(F)c1F (stereo not shown) ?
0
